Each entry below carries its recorded AC50.
TESTED_ON: hPK-M2 (Homo sapiens)
Sequence (P14618 whole entry): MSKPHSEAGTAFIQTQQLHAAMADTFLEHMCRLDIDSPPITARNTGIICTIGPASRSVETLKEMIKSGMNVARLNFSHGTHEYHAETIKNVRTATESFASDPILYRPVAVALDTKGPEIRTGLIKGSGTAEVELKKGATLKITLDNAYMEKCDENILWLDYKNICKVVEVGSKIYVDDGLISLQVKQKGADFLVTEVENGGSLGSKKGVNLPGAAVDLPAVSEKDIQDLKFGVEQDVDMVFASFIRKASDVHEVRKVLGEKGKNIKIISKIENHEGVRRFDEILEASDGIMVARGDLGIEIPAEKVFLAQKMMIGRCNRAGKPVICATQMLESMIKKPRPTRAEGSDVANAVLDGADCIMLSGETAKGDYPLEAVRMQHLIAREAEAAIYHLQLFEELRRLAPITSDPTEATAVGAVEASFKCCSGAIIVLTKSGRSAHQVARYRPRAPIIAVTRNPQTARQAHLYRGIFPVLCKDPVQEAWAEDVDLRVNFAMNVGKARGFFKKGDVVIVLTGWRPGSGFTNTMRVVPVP
PROCEDURE_SUMMARY: Fluorescent pyruvate kinase-lactate dehydrogenase (LDH) coupled secondary assay
Format: biochemical
CONDITION_DESCRIPTION: read-out: AC50, LDH assay
Description: Fluorescent Pyruvate Kinase-Lactate Dehydrogenase Coupled Secondary Assay. Plates were immediately placed in ViewLux (Perkin Elmer) and NADH fluorescence was determined at 30 second exposure intervals for between 3 and 6 minutes. Data were normalized to the uninhibited and EC100 activation using known activators such as fructose-1,6-bis-phosphate. […] Data was collected on the Perkin Elmer Viewlux.
Entry rule: numbers only, all in nM.

SMILES: Cc1cc2c(s1)c1cnn(Cc3ccc(C(F)(F)F)cc3)c(=O)c1n2C
TESTED_ON: hPK-M2 (Homo sapiens)
AC50 [nM]: 2200
//
SMILES: CC(=O)c1cc2c(s1)c1cnn(Cc3ccccc3F)c(=O)c1n2C
TESTED_ON: hPK-M2 (Homo sapiens)
AC50 [nM]: 150
//
SMILES: Cc1cc2c(s1)c1cnn(Cc3c(F)cccc3F)c(=O)c1n2C
TESTED_ON: hPK-M2 (Homo sapiens)
AC50 [nM]: 140
//
SMILES: CC(C)c1cc2c(s1)c1cnn(Cc3ccccc3F)c(=O)c1n2C
TESTED_ON: hPK-M2 (Homo sapiens)
AC50 [nM]: 1800

Need AC50, item O=S(=O)(c1ccc2ccccc2c1)N1CCN(S(=O)(=O)c2c(F)cccc2F)CC1
220
